meta.source: patent US20150266850A1

- System: Septoria tritici
- procedure.summary: Test C: wheat leaf blotch, preventive spray on wheat seedlings, visual disease rating
- Assay type: in vivo
- particulars: Zymoseptoria tritici, 504 h, 200 ppm, 100 = 100% disease control
attribute.measured: pest or weed control at 200 ppm (%)
Give bare numbers, in %.

compound="COC(=O)NCc1cc(-n2ncc(-c3ccc(I)cc3OC)[n+]2[O-])ccc1C [Compound 81]" attribute_measured="pest or weed control at 200 ppm" quantity_unit=% recorded_value=98
compound="COC(=O)NCc1cc(-n2ccc(-c3ccc(Cl)cc3Cl)n2)ccc1C [Compound 31]" attribute_measured="pest or weed control at 200 ppm" quantity_unit=% recorded_value=100

Record pest or weed control at 200 ppm per entry; entries follow.
1. COC(=O)NCc1cc(-c2ccn(-c3ccc(Cl)cc3OC)n2)ccc1C [Compound 28]
2. COC(=O)NCc1cc(-n2ccc(-c3ccc(OC)cc3C)n2)ccc1C [Compound 10]

Output:
1: 100; 2: 100
